FYI, the data here is from patent US20210254056A1.

Tested on: hepatocytes
Test: RNA-seq of hepatocytes treated with Phase III failure compounds
Conditions: gene ANGPTL3; hepatocytes
Recorded measurements of RNA-seq results: ANGPTL3 expression, one per entry
Simply state the number, no unit and no words.

Known results for molecules:
                                   molecule  observed_result
0  CCN(CC)CCN(Cc1ccc(-c2ccc(C(F)(F)F)cc2)cc1)C(=O)Cn1c(SCc2ccc(F)cc2)nc(=O)c2c1CCC2            −1.20
1  CCC(CC)[C@H](NC(C)=O)[C@@H]1[C@H](O)[C@@H](C(=O)O)C[C@H]1NC(=N)N.O.O.O [peramivir (trihydrate), peramivir]            −0.42
2  COc1cc2c(Oc3ccc4[nH]c(C)cc4c3F)ncnc2cc1OCCCN1CCCC1            −1.40
3  COc1cc2nccc(Oc3ccc(NC(=O)Nc4cc(C)on4)c(Cl)c3)c2cc1OC            −1.56
4        O=P(O)(NCCCl)NCCCl [Palifosfamide]            −0.28
5  Cn1cnc2c(F)c(Nc3ccc(Br)cc3Cl)c(C(=O)NOCCO)cc21            −0.67
6  CCOC(=O)N1c2ccc(C(F)(F)F)cc2[C@@H](N(Cc2cc(C(F)(F)F)cc(C(F)(F)F)c2)C(=O)OC)C[C@H]1CC            −0.46
7           NC(=O)c1ccc(I)c([N+](=O)[O-])c1            −0.14

Fetch value of RNA-seq results: ANGPTL3 expression on hepatocytes for COc1cc(Nc2ncc(F)c(Nc3ccc4c(n3)N(COP(=O)(O)O)C(=O)C(C)(C)O4)n2)cc(OC)c1OC .
0.24

Fetch value of RNA-seq results: ANGPTL3 expression on hepatocytes for C=CCNC1=C2C[C@@H](C)C[C@H](OC)[C@H](O)[C@@H](C)/C=C(\C)[C@H](OC(N)=O)[C@@H](OC)/C=C\C=C(/C)C(=O)NC(=CC1=O)C2=O .
0.06

Fetch value of RNA-seq results: ANGPTL3 expression on hepatocytes for Cn1cc(C2=C(c3cn(C4CCN(Cc5ccccn5)CC4)c4ccccc34)C(=O)NC2=O)c2ccccc21 .
−2.31

====

Test system: hepatocytes
Assay: RNA-seq of hepatocytes treated with Phase III failure compounds
Details: gene CDAN1; hepatocytes
Recorded measurements of CDAN1 expression, RNA-seq result, one per entry
Simply state the number, no unit and no words.

Known results for molecules:
Molecule	Target System	CDAN1 expression, RNA-seq result
C=CC(=O)Nc1cccc(Nc2nc(Nc3ccc(N4CCN(C(C)=O)CC4)cc3OC)ncc2C(F)(F)F)c1 [CO-1686 (Rociletinib), Rociletinib]	hepatocytes	0.02
COc1nc(N)nc2c1ncn2[C@@H]1O[C@H](COP(=O)(N[C@@H](C)C(=O)OCC(C)(C)C)Oc2cccc3ccccc23)[C@@H](O)[C@@]1(C)O (stereo partly drawn) [Bms-986094 (inx-189), Bms-986094]	hepatocytes	0.38

Tell us which CDAN1 expression, RNA-seq result value is on record for COCCOc1ccc(N2CCN(CCn3ncc4c3nc(N)n3nc(-c5ccco5)nc43)CC2)cc1 [Preladenant]
−0.32

====

Recorded measurements of BBOX1 expression, RNA-seq result, one per entry
Tested on: hepatocytes
Experiment: RNA-seq of hepatocytes treated with Phase III failure compounds
Conditions: gene BBOX1; hepatocytes
Structures can show the parent of a compound that is named as a salt.
Simply state the number, no unit and no words.

Compound	BBOX1 expression, RNA-seq result
COCCOc1ccc(N2CCN(CCn3ncc4c3nc(N)n3nc(-c5ccco5)nc43)CC2)cc1 [Preladenant]	−0.56

Tell us which BBOX1 expression, RNA-seq result value is on record for COc1cccc2c1C(=O)c1c(O)c3c(c(O)c1C2=O)C[C@@](O)(/C(CO)=N/NC(=O)CCCCCN1C(=O)C=CC1=O)C[C@@H]3O[C@H]1C[C@H](N)[C@H](O)[C@H](C)O1 [INNO-206 (aldoxorubicin), aldoxorubicin]
−1.19

Tell us which BBOX1 expression, RNA-seq result value is on record for Cn1c(COP(=O)(NCCBr)NCCBr)cnc1[N+](=O)[O-] [TH-302 (Evofosfamide), Evofosfamide]
0.35

Tell us which BBOX1 expression, RNA-seq result value is on record for O=C(N[C@H]1CN2CCC1CC2)c1cc2cccc(Cl)c2s1 [EVP-6124 (hydrochloride) (encenicline), encenicline]
−0.14

====

Recorded measurements of Number (#) of genes having significantly changed expression, one per entry
Test system: hepatocytes
Experiment: RNA-seq of hepatocytes treated with Phase III failure compounds
Simply state the number, no unit and no words.

Known results for compounds:
Compound	Target System	Observed Result
C=CCNC1=C2C[C@@H](C)C[C@H](OC)[C@H](O)[C@@H](C)/C=C(\C)[C@H](OC(N)=O)[C@@H](OC)/C=C\C=C(/C)C(=O)NC(=CC1=O)C2=O [Compound 17-AAG]	hepatocytes	1558
Cn1c(COP(=O)(NCCBr)NCCBr)cnc1[N+](=O)[O-] [TH-302 (Evofosfamide), Evofosfamide]	hepatocytes	28

Fetch value of Number (#) of genes having significantly changed expression on hepatocytes for COc1nc(N)nc2c1ncn2[C@@H]1O[C@H](COP(=O)(N[C@@H](C)C(=O)OCC(C)(C)C)Oc2cccc3ccccc23)[C@@H](O)[C@@]1(C)O (stereo partly drawn) [bms-986094] .
2079

====

Recorded measurements of RNA-seq results: CYP39A1 expression, one per entry
Test system: hepatocytes
Test: RNA-seq of hepatocytes treated with Phase III failure compounds
Simply state the number, no unit and no words.

Known results for compounds:
>>> print(df.to_string())
                                   molecule  observed_result
0  Cn1cnc2c(F)c(Nc3ccc(Br)cc3Cl)c(C(=O)NOCCO)cc21             0.08
1  COc1cc2nccc(Oc3ccc(NC(=O)Nc4cc(C)on4)c(Cl)c3)c2cc1OC             0.06
2  COc1cc2c(Oc3ccc4[nH]c(C)cc4c3F)ncnc2cc1OCCCN1CCCC1            −0.24

Tell us which RNA-seq results: CYP39A1 expression value is on record for NC(=O)c1ccc(I)c([N+](=O)[O-])c1
0.43

Tell us which RNA-seq results: CYP39A1 expression value is on record for Cn1cc(C2=C(c3cn(C4CCN(Cc5ccccn5)CC4)c4ccccc34)C(=O)NC2=O)c2ccccc21
−0.08

Tell us which RNA-seq results: CYP39A1 expression value is on record for CCN(CC)CCN(Cc1ccc(-c2ccc(C(F)(F)F)cc2)cc1)C(=O)Cn1c(SCc2ccc(F)cc2)nc(=O)c2c1CCC2
−0.07

Tell us which RNA-seq results: CYP39A1 expression value is on record for CCOC(=O)N1c2ccc(C(F)(F)F)cc2[C@@H](N(Cc2cc(C(F)(F)F)cc(C(F)(F)F)c2)C(=O)OC)C[C@H]1CC
0

Tell us which RNA-seq results: CYP39A1 expression value is on record for C=CCNC1=C2C[C@@H](C)C[C@H](OC)[C@H](O)[C@@H](C)/C=C(\C)[C@H](OC(N)=O)[C@@H](OC)/C=C\C=C(/C)C(=O)NC(=CC1=O)C2=O
−0.62

====

Test system: hepatocytes
Test: RNA-seq of hepatocytes treated with Phase III failure compounds
Details: gene FGA; hepatocytes
Recorded measurements of RNA-seq results: FGA expression, one per entry

Known results for compounds:
Compound	Property Measured	Observed Result
CCN(CC)CCN(Cc1ccc(-c2ccc(C(F)(F)F)cc2)cc1)C(=O)Cn1c(SCc2ccc(F)cc2)nc(=O)c2c1CCC2 [Darapladib]	RNA-seq results: FGA expression	−0.32
C=CCNC1=C2C[C@@H](C)C[C@H](OC)[C@H](O)[C@@H](C)/C=C(\C)[C@H](OC(N)=O)[C@@H](OC)/C=C\C=C(/C)C(=O)NC(=CC1=O)C2=O [17-MG (Tanespimycin), Tanespimycin]	RNA-seq results: FGA expression	0.46
CCOC(=O)N1c2ccc(C(F)(F)F)cc2[C@@H](N(Cc2cc(C(F)(F)F)cc(C(F)(F)F)c2)C(=O)OC)C[C@H]1CC [Torcetrapib]	RNA-seq results: FGA expression	−0.25
COc1cc2nccc(Oc3ccc(NC(=O)Nc4cc(C)on4)c(Cl)c3)c2cc1OC [Tivozanib]	RNA-seq results: FGA expression	0.15
Cn1cc(C2=C(c3cn(C4CCN(Cc5ccccn5)CC4)c4ccccc34)C(=O)NC2=O)c2ccccc21 [Enzastaurin]	RNA-seq results: FGA expression	−0.10
O=P(O)(NCCCl)NCCCl [Palifosfamide]	RNA-seq results: FGA expression	0.12

Tell us which RNA-seq results: FGA expression value is on record for CCC(CC)[C@H](NC(C)=O)[C@@H]1[C@H](O)[C@@H](C(=O)O)C[C@H]1NC(=N)N.O.O.O [peramivir (trihydrate), peramivir]
−0.37
